meta.source: PubChem BioAssay

# tested target: Follistatin (Homo sapiens)
# test method notes: follistatin binders on small-molecule microarrays, primary screen, biochemical, small-molecule microarray, 635/667 nm fluorescence (AID 1132)
# measurement setup: FST binding, 635 nm fluorescence, higher = more signal
measurement name: composite z-score
Numbers only.

Would you please look over these solved cases?
COC(=O)C=C(CC(O)c1cccc(Cl)c1)OC (stereo not drawn): -0.431
COc1ccc(C(=O)Nc2ccc(CN3C(=O)[C@@]4(O[C@@H](CC(=O)N5CCC[C@H]5CO)[C@H]([Si](C)(C)c5ccc(OC)cc5)[C@H]4C)c4ccccc43)cc2)cc1: 1.33

We next turn to a different molecule, shown below.
Exercise: Report composite z-score for Cc1ccc(S[C@]2(C(=O)NCC(C)C)CC(=O)N(Cc3cc(C(F)(F)F)cc(C(F)(F)F)c3)[C@@H]2c2ccc(CO)cc2I)cc1 please.
Key: -1.59

---

# test method notes: binders of probe aFGF10 on microarray, primary screen, stem cell growth factor project, biochemical, small-molecule microarray, fluorescence 635/667 (AID 1071);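 further: score merges 667 nm spot intensity and signal to noise from triplicate slides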
# measurement setup: higher = more signal
measurement name: composite z-score

CCCCN1CC=CC23O[C@@H]4/C=C\CCC(C)OC(=O)C4[C@H]2C(=O)N(CCCCCO)[C@@H]3C1=O (some centres not stated): -1.16
COc1ccc(C(=O)Nc2ccc(CN3C(=O)[C@@]4(O[C@@H](CCO)[C@H]([Si](C)(C)c5ccc(OC)cc5)[C@H]4C)c4ccccc43)cc2)cc1: 0.187
C[N+](C)(C)CCCC[C@@H]1NC(=O)[C@@H]2C[C@H](C(=O)NCCCCCN)[C@H](c3cccc(OCCO)c3)N2C1=O: 0.506
CN(C)C(=O)[C@]1(Cc2ccccc2CN=[N+]=[N-])N=C(c2ccc(OCCCO)cc2)O[C@@H]1c1ccccc1CN=[N+]=[N-]: 1.18
COc1ccc(CCNC(=O)[C@@H]2c3ccccc3C(=O)N(C3Cc4ccccc4C3)[C@H]2c2ccc(CO)cc2)cc1: 0.219

Please supply composite z-score for each of the following items, keeping them in order.
1. C=C(COC)/C(=C/C[C@H](OC(=O)c1ccncc1)c1ccc(OCCO)cc1)c1cnc2ccccc2c1
2. CCCCN1CC=CC23O[C@@H]4C=CCOC(=O)[C@@H]4[C@H]2C(=O)N(CCCCCO)[C@@H]3C1=O (some centres not stated)
3. [N-]=[N+]=Nc1ccccc1[C@H]1OC(c2ccc(OCCCO)cc2)=N[C@@]1(Cc1ccccc1)C(=O)O
4. COc1ccc(C(O)C2C=CC3C(=O)NC(=O)C3N2Nc2ccccn2)cc1 (configuration not stated)
5. CN1C(=O)C2C=CC(C(O)c3ccc(-c4ccccc4)s3)N(N(c3ccccc3)c3ccccc3)C2C1=O (configuration not stated)

Key:
[0.97, -0.32, 0.641, 0.585, 0.199]

Please supply composite z-score for each of the following items, keeping them in order.
1. C[N+](C)(C)CCCCNC(=O)[C@H]1C[C@H]2C(=O)N[C@@H](Cc3ccccc3)C(=O)N2[C@H]1c1ccc(O)cc1
2. CC(C)(C)OC(=O)CC[C@]1(C(=O)NCC(O)CO)COC(c2ccc(OCCCO)cc2)=N1 (some centres not stated)
3. C=CCN1C(=O)[C@]2(O[C@H](CCO)[C@@H]([Si](C)(C)c3ccc(OC)cc3)[C@@H]2C)c2cc(N3C(=O)c4cccc5cccc3c45)ccc21
4. Cc1ccc(S[C@]2(C(=O)NCC(C)C)CC(=O)N(Cc3cc(C(F)(F)F)cc(C(F)(F)F)c3)[C@@H]2c2ccc(CO)cc2I)cc1
5. CN(C)CCCNC(=O)[C@@]1(c2ccc([N+](=O)[O-])cc2)CC(=O)N(C2CCCCC2)[C@@H]1c1ccc(CO)cc1
6. C=CCOC(=O)[C@H]1[C@@H]2C(=O)O[C@@H](c3ccccc3)[C@@H](c3ccccc3)N2[C@@H](c2ccc(OCCOC(=O)[C@@H]3C[C@@H]4C(=O)N[C@@H](CCCC[N+](C)(C)C)C(=O)N4[C@@H]3c3ccc(O)cc3)cc2)[C@]12C(=O)Nc1ccccc12
7. C=CCC(OC(C)=O)[C@@H]1[C@@H](N(Cc2cccc3ccccc23)C(=O)c2ccc(-c3ccccc3)cc2)c2cc(OCCCO)ccc2N1C(=O)Cc1ccc(OC)cc1 (some centres not stated)

Key:
1. 0.0806
2. -0.0211
3. 0.607
4. -0.637
5. -0.466
6. 0.439
7. 0.151
